- TEST_NAME: accelerated stability test (sealed vial, 30° C., HPLC content and related substances)
- Format: physicochemical
- MEASUREMENT_PARAMETERS: month 3
READOUT_NAME: Assay (%)
Numbers only, in %.

-- ask Output measured Assay (%) for this item: CC[C@H]1OC(=O)[C@H](C)[C@@H](O[C@H]2C[C@@](C)(OC)[C@@H](O)[C@H](C)O2)[C@H](C)[C@@H](O[C@@H]2O[C@H](C)C[C@H](N(C)C)[C@H]2O)[C@](C)(O)C[C@@H](C)C(=O)[C@H](C)[C@@H](O)[C@]1(C)O [erythromycin lactobionate trihydrate]
-- reply 100.1

----------
Exercise: for every item that follows, state its recorded Assay (%).
- TEST_NAME: accelerated stability test (sealed vial, 30° C., HPLC content and related substances)
- Type: physicochemical
- MEASUREMENT_PARAMETERS: month 1
Numbers only, in %.

CC[C@H]1OC(=O)[C@H](C)[C@@H](O[C@H]2C[C@@](C)(OC)[C@@H](O)[C@H](C)O2)[C@H](C)[C@@H](O[C@@H]2O[C@H](C)C[C@H](N(C)C)[C@H]2O)[C@](C)(O)C[C@@H](C)C(=O)[C@H](C)[C@@H](O)[C@]1(C)O.O.O.O.O.O.O=C(O)[C@H](O)[C@@H](O)[C@H](O[C@@H]1O[C@H](CO)[C@H](O)[C@H](O)[C@H]1O)[C@H](O)CO [erythromycin lactobionate pentahydrate] | 100.2
CC[C@H]1OC(=O)[C@H](C)[C@@H](O[C@H]2C[C@@](C)(OC)[C@@H](O)[C@H](C)O2)[C@H](C)[C@@H](O[C@@H]2O[C@H](C)C[C@H](N(C)C)[C@H]2O)[C@](C)(O)C[C@@H](C)C(=O)[C@H](C)[C@@H](O)[C@]1(C)O.O.O.O.O.O.O.O=C(O)[C@H](O)[C@@H](O)[C@H](O[C@@H]1O[C@H](CO)[C@H](O)[C@H](O)[C@H]1O)[C@H](O)CO [erythromycin lactobionate hexahydrate] | 99.6
CC[C@H]1OC(=O)[C@H](C)[C@@H](O[C@H]2C[C@@](C)(OC)[C@@H](O)[C@H](C)O2)[C@H](C)[C@@H](O[C@@H]2O[C@H](C)C[C@H](N(C)C)[C@H]2O)[C@](C)(O)C[C@@H](C)C(=O)[C@H](C)[C@@H](O)[C@]1(C)O.N#CS.O.O.O [erythromycin thiocyanate trihydrate] | 99.9
CC[C@H]1OC(=O)[C@H](C)[C@@H](O[C@H]2C[C@@](C)(OC)[C@@H](O)[C@H](C)O2)[C@H](C)[C@@H](O[C@@H]2O[C@H](C)C[C@H](N(C)C)[C@H]2O)[C@](C)(O)C[C@@H](C)C(=O)[C@H](C)[C@@H](O)[C@]1(C)O.N#CS.O.O [erythromycin thiocyanate dihydrate] | 99.9

-- ask Output measured Assay (%) for this item: CC[C@H]1OC(=O)[C@H](C)[C@@H](O[C@H]2C[C@@](C)(OC)[C@@H](O)[C@H](C)O2)[C@H](C)[C@@H](O[C@@H]2O[C@H](C)C[C@H](N(C)C)[C@H]2O)[C@](C)(O)C[C@@H](C)C(=O)[C@H](C)[C@@H](O)[C@]1(C)O [erythromycin lactobionate trihydrate]
-- reply 100.2
